B1: library; a variant is named by its letters at N, in order (parent)
chain: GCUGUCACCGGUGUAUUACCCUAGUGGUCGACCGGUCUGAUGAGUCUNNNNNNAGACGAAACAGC

variants of: B1; test: normalized RNA/DNA level with ligand (relative to sTRSVctl = 100) (log10 (% of sTRSVctl)); ligand: hypoxanthine (xanthine aptamer); higher = less ribozyme self-cleavage, higher mRNA level; details: ligand concentration (+) RNA-Seq: 5 mM, HEK293T, reporter: mCherry (pCS4076), ligand present: yes
PROPERTY MEASURED: normalized RNA/DNA level with ligand (log10)
// keep it numeric: no unit symbol after the value

Some solved cases for reference:
>>> df
                             sequence_chain  experimental_value
0  GCUGUCACCGGUGUAUUACCCUAGUGGUCGACCGGUCUGAUGAGUCUCUCGGUAGACGAAACAGC                1.94
1  GCUGUCACCGGUGUAUUACCCUAGUGGUCGACCGGUCUGAUGAGUCUAACCCUAGACGAAACAGC                1.93
2  GCUGUCACCGGUGUAUUACCCUAGUGGUCGACCGGUCUGAUGAGUCUUAUAUAAGACGAAACAGC                1.95
3  GCUGUCACCGGUGUAUUACCCUAGUGGUCGACCGGUCUGAUGAGUCUACGAAAAGACGAAACAGC                1.86
4  GCUGUCACCGGUGUAUUACCCUAGUGGUCGACCGGUCUGAUGAGUCUAUGCCGAGACGAAACAGC                1.84

Problem: Which measured normalized RNA/DNA level with ligand (log10) value corresponds to `GCUGUCACCGGUGUAUUACCCUAGUGGUCGACCGGUCUGAUGAGUCUCCGAGCAGACGAAACAGC` ?
Solution: 1.9

Problem: Which measured normalized RNA/DNA level with ligand (log10) value corresponds to `GCUGUCACCGGUGUAUUACCCUAGUGGUCGACCGGUCUGAUGAGUCUGAACCCAGACGAAACAGC` ?
Solution: 1.94
